These measurements were taken from ChEMBL document CHEMBL1158589.

system: HL-60; experiment: Cytotoxicity against human HL60 cells assessed as NADH level after 72 hrs by MTS cells; format: functional, cell-based; details: HL-60, 72 h
pEC50: −log10 of the molar value.

COMPOUND	MEASURED TARGET	pEC50
CN1CCCC(n2c(-c3cccc(/C=C/C(=O)NO)c3)nc3ccccc32)C1 (racemic)	HL-60	7.10
O=C(/C=C/c1cccc(-c2nc3ccccc3n2-c2ccc(Cl)cc2)c1)NO	HL-60	6.10
Cc1nc(-c2cccc(/C=C/C(=O)NO)c2)n(CCN2CCOCC2)c1Cc1ccccc1	HL-60	6.70
Cc1c(Cc2ccccc2)nc(-c2cccc(/C=C/C(=O)NO)c2)n1CCc1ccccc1	HL-60	6.70
O=C(/C=C/c1cccc(-c2nc3ccccc3n2CCCc2ccccc2)c1)NO	HL-60	5.92
O=C(/C=C/c1cccc(-c2nc3ccccc3n2-c2ccccc2)c1)NO	HL-60	5.80
CC(C)n1c(-c2cccc(/C=C/C(=O)NO)c2)nc2ccccc21	HL-60	6.00
C[C@@H](c1ccccc1)n1c(-c2cccc(/C=C/C(=O)NO)c2)nc2ccccc21	HL-60	5.51

---

Listed here: items and their measured EC50.
tested on: PC-3; test: Cytotoxicity against human PC3 cells assessed as NADH level after 72 hrs by MTS cells; type: functional, cell-based; conditions: PC-3, 72 h
PROPERTY MEASURED: EC50 (nM)

STRUCTURE AS SMILES	READOUT UNITS	CMP	MEASURED VALUE
O=C(/C=C/c1cccc(-c2nc3ccccc3n2CC2CCNCC2)c1)NO	nM	>	50000
Cc1nc(-c2cccc(/C=C/C(=O)NO)c2)n(CCN2CCOCC2)c1Cc1ccccc1	nM	=	600
CC(C)N(CCn1c(-c2cccc(/C=C/C(=O)NO)c2)nc2ccccc21)C(C)C	nM	=	3100
CCN1CCC[C@@H](n2c(-c3cccc(/C=C/C(=O)NO)c3)nc(-c3ccccc3)c2C)C1	nM	=	50

---

tested on: A549; assay: Cytotoxicity against human A549 cells assessed as NADH level after 72 hrs by MTS cells; format: functional, cell-based; details: A549, 72 h
pEC50: −log10 of the molar value.
Measured pEC50, listed per entry for reference.

MOLECULE	CMP	pEC50
Cc1nc(-c2cccc(/C=C/C(=O)NO)c2)n(CCc2ccccc2)c1-c1ccccc1	=	6.00
CN1CCCC(n2c(-c3cccc(/C=C/C(=O)NO)c3)nc3ccccc32)C1 (racemic)	=	6.30
Cc1c(-c2ccccc2)nc(-c2cccc(/C=C/C(=O)NO)c2)n1[C@@H]1CCCN(C(C)C)C1	=	6.30
Cc1nc(-c2cccc(/C=C/C(=O)NO)c2)n(CCc2ccccc2)c1C	=	6.40
CN1CCC[C@@H](n2c(-c3cccc(/C=C/C(=O)NO)c3)nc3ccccc32)C1	=	6.52
CCN1CCC[C@H](n2c(-c3cccc(/C=C/C(=O)NO)c3)nc3ccccc32)C1	=	6.22
O=C(/C=C/c1cccc(-c2nc3ccccc3n2[C@@H]2CCCNC2)c1)NO	=	6.00
Cc1c(-c2ccccc2)nc(-c2cccc(/C=C/C(=O)NO)c2)n1CCN1CCOCC1	=	5.20
Cc1nc(-c2cccc(/C=C/C(=O)NO)c2)n(CCN2CCOCC2)c1C	<	4.30
CCN1CCCC(n2c(-c3cccc(/C=C/C(=O)NO)c3)nc3ccccc32)C1 (racemic)	=	6.30
Cc1c(-c2ccccc2)nc(-c2cccc(/C=C/C(=O)NO)c2)n1[C@@H]1CCCN(C)C1	=	6.22
O=C(/C=C/c1cccc(-c2nc3ccccc3n2C2CCCCC2)c1)NO	=	5.51
O=C(/C=C/c1cccc(-c2nc3ccccc3n2-c2ccccc2)c1)NO	=	4.80
CC(C)n1c(-c2cccc(/C=C/C(=O)NO)c2)nc2ccccc21	=	5.30
